Hey, just so you know, these numbers are from paper PMC3589825.

- System Name: T1, Tat-P-TEFb complex (HIV-1 Tat 1–86, CDK9 1–330, cyclin T1 1–264) (human | HIV-1, UniProt P50750;O60563;P04608)
- T1 construct: also called P-TEFb-Tat; not shown: His-tag, N-terminal, cleaved; copies: + +
- Procedure Details: fluorescence polarisation; competition titration of unlabeled AFF4 segments against 5 nM fluorescent peptide with 75 nM CycT1, 45 nM P-TEFb or 6 nM Tat-P-TEFb; 25 mM HEPES pH 7.5, 100 mM NaCl, 10% glycerol, 0.1% NP40, 0.5 mM TCEP
- Conditions: both partners purified
pKd: −log10 of the molar value.
pKd: recorded values
Measurement Name: pKd

[[record]]
binder = "AFF4(2–363) (domain or fragment, human, UniProt Q9UHB7 2-363, looked up) NREDRNVLRMKERERRNQEIQQGEDAFPPSSPLFAEPYKVTSKEDKLSSRIQSMLGNYDEMKDFIGDRSIPKLVAIPKPTVPPSADEKSNPNFFEQRHGGSHQSSKWTPVGPAPSTSQSQKRSSGLQSGHSSQRTSAGSSSGTNSSGQRHDRESYNNSGSSSRKKGQHGSEHSKSRSSSPGKPQAVSSLNSSHSRSHGNDHHSKEHQRSKSPRDPDANWDSPSRVPFSSGQHSTQSFPPSLMSKSNSMLQKPTAYVRPMDGQESMEPKLSSEHYSSQSHGNSMTELKPSSKAHLTKLKIPSQPLDASASGDVSCVDEILKEMTHSWPPPLTAIHTPCKTEPSKFPFPTKESQQSNFGTGEQK"
measurement_name = "pKd"
result = 9.22

[[record]]
binder = "SPLFAEPYKVTSKEDKLSSRIQSMLGNYDEMKDFIG [unlabeled AFF4(32–67) peptide]"
measurement_name = "pKd"
result = 8.35

[[record]]
binder = "AFF4(2–73) (domain or fragment, human, UniProt Q9UHB7 2-73, looked up, source: E. coli Rosetta(DE3)pLysS, purified (His-Trap, TEV digest, His-Trap); not shown: His-tag, N-terminal, cleaved) NREDRNVLRMKERERRNQEIQQGEDAFPPSSPLFAEPYKVTSKEDKLSSRIQSMLGNYDEMKDFIGDRSIPK"
measurement_name = "pKd"
result = 9.07

